Hi! Could you tag entries with glass transition temperature below 100 °C as 1 (yes), and those at or above as 0 (no)? Much appreciated.

Consider the following illustrative entries.
{"Compound": "*CCCCCCCCCCCCCCNC(=O)NCc1ccc(CNC(=O)N*)cc1 (repeat unit)", "Category Label": "1 (yes)"}
{"Compound": "*CCCCCCCCCCCCCCCCOC(=O)NCc1ccc(CNC(=O)O*)cc1 (repeat unit)", "Category Label": "1 (yes)"}
{"Compound": "*CC(*)(C)C(=O)OC1CCC(C)CC1 (repeat unit)", "Category Label": "0 (no)"}
{"Compound": "*Oc1ccc(S(=O)(=O)c2ccc(Oc3ccc(/C=C4\\CCC/C(=C\\c5ccc(*)cc5)C4=O)cc3)cc2)cc1 (repeat unit)", "Category Label": "0 (no)"}

Request: Problem: For the compound *CCCCCCNC(=O)c1ccc(C(=O)N*)c(Oc2ccc(F)cc2)c1 (repeat unit) , is glass transition temperature under 100 °C?
Result: 0 (no)

Request: Continue with *CCN(*)C(=O)C(OC)(c1ccccc1)C(F)(F)F (repeat unit)
Result: 1 (yes)

Request: Same question for *CCCCCCCn1c2ccccc2c2cc(/C=C(\C#N)C(=O)OCCCCCCOC(=O)/C(C#N)=C/c3ccc4c(c3)c3ccccc3n4*)ccc21 (repeat unit) please.
Result: 0 (no)

Request: And the next one, *O[Si](C)(C)O[Si](C)(C)O[Si](C)(C)O[Si](C)(C)c1ccc([Si](*)(C)C)cc1 (repeat unit) ?
Result: 1 (yes)

Request: Also *OC(CCCCCC)CC(*)=O (repeat unit) ?
Result: 1 (yes)

Request: Record: *CCNC(=O)Nc1ccc(Cc2ccc(NC(=O)NCCOCCO*)cc2)cc1 (repeat unit)
Result: 1 (yes)

Request: Try this compound too: *Oc1ccc(C(C)(C)c2ccc(OC(*)=O)c(Cl)c2)cc1C (repeat unit)
Result: 0 (no)

Request: Try this compound next: *CC(*)c1ccc(F)cc1 (repeat unit)
Result: 0 (no)

Request: Queued: *CC(*)c1ccc(OC(C)=O)c(OC)c1 (repeat unit)
Result: 0 (no)

Request: Please do the same for *c1cc(N2C(=O)c3ccc(Oc4ccc5ccc(Oc6ccc7c(c6)C(=O)N(*)C7=O)cc5c4)cc3C2=O)cc(C(F)(F)F)c1 (repeat unit) as well.
Result: 0 (no)

Request: Next record, please: *c1ccc(-c2ccc(-c3ccc4c(c3)C(CCCCCCCC)(CCCCCCCC)c3cc(-c5ccc(*)s5)ccc3-4)s2)cn1 (repeat unit)
Result: 0 (no)

Request: Also, *Oc1ccc(OC(=O)c2cc(OCCCCCCOCC3CCCN3c3ccc([N+](=O)[O-])cc3)c(C(*)=O)cc2OCCCCCCOCC2CCCN2c2ccc([N+](=O)[O-])cc2)cc1 (repeat unit) please.
Result: 1 (yes)

###

Sorting guide: entries reporting glass transition temperature beneath 100 °C go in the 1 (yes) pile, the rest go in the 0 (no) pile.

Worked examples, 6 compounds total:
{"Compound": "*c1ccc(C(c2ccc(C(=O)OC)cc2)c2ccc(N(*)c3ccc(C)cc3)cc2)cc1 (repeat unit)", "Category Label": "0 (no)"}
{"Compound": "*C(=O)Nc1ccc(C)cc1N1C(=O)CC(N2C(=O)c3ccc(*)cc3C2=O)C1=O (repeat unit)", "Category Label": "0 (no)"}
{"Compound": "*c1ccc(-c2cc(-c3ccc(OCCCC#N)cc3)cc(-c3ccc(N4C(=O)c5ccc(Oc6ccc7c(c6)C(=O)N(*)C7=O)cc5C4=O)cc3)n2)cc1 (repeat unit)", "Category Label": "0 (no)"}
{"Compound": "*C(C)C(*)C(=O)OCCC (repeat unit)", "Category Label": "0 (no)"}
{"Compound": "*c1ccc(Oc2ccc(C(=O)c3ccc(Oc4ccc(N5C(=O)c6ccc(S(=O)(=O)c7ccc8c(c7)C(=O)N(*)C8=O)cc6C5=O)cc4)cc3)cc2)cc1 (repeat unit)", "Category Label": "0 (no)"}
{"Compound": "*CCN(CCOC(=O)CCC#CC#CCCC(=O)O*)c1ccc([N+](=O)[O-])cc1 (repeat unit)", "Category Label": "1 (yes)"}

Request: Please indicate whether the reported glass transition temperature of *c1ccc(OC(=O)c2cccc(C(=O)Oc3ccc(C4(*)NC(=O)c5ccccc54)cc3)c2)cc1 (repeat unit) is strictly below 100 °C.
Result: 0 (no)
